- assay-info: Aqueous solubility and solution stability
- Format: physicochemical
- condition: aqueous solution; 10-12 mM solution, months at room temperature, in the dark; read-out: decomposition of solution
quantity-name: degraded

So what does the record say about degraded for Nc1ccc2oc(=O)ccc2c1 ?
< 0.1%

----------
- assay-info: Aqueous solubility and solution stability
- Type: physicochemical
- condition: aqueous media; pH 7.2-7.9
quantity-name: solubility

Which value of solubility has been reported for Nc1ccc2oc(=O)ccc2c1 in the records?
10 to 12 mM
